Molecular target: T1, human PEPT1 (hPEPT1) receptor domain, amino acid residues 391-571, His-tag fusion protein (human, UniProt P46059 391-571)
T1 construct: Expressed as His-tag fusion, purified under denaturing conditions, coated on plates; not shown: poly-histidine tag (pET His-tag) at the NH2-terminal end
T1 sequence: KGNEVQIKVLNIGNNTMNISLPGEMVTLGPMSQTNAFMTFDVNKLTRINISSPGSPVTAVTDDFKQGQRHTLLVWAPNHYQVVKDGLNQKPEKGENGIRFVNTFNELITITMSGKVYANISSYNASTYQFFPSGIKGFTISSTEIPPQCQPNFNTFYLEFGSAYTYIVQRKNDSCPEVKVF
Experiment: phage ELISA, OD on hPEPT1 over OD on BSA
Please respond with reported PEPT1/BSA for every item in the list.
Answers are plain numbers, in ratio.

Here are 2 binders together with their reported answers.
| binder | PEPT1/BSA, ratio |
| --- | --- |
| RASTQGGRGVAPEFGASVLGRGCGSATYYTNSTSCKDAMGHNYS (pIII and flanks not included) [phage PAX40] | 6 |
| RGWKCEGSQAAYGDKDIGRSRGCGSITKNNTNHAHPSHGAVAKI (pIII and flanks not included) [phage 5PAX12] | 6 |

Here is another binder to look at.
[Q] Provide only the value of recorded PEPT1/BSA for SRCTDNEQCPDTGTRSRSVSNARYFSSRLLKTHAPHRP (pIII and flanks not included) [phage PAX46]
[A] 6
